Each item that follows carries a reported IC50.
# Target desc: human CaV3.2 (Homo sapiens, UniProt O95180)
# Sequence (O95180 whole entry): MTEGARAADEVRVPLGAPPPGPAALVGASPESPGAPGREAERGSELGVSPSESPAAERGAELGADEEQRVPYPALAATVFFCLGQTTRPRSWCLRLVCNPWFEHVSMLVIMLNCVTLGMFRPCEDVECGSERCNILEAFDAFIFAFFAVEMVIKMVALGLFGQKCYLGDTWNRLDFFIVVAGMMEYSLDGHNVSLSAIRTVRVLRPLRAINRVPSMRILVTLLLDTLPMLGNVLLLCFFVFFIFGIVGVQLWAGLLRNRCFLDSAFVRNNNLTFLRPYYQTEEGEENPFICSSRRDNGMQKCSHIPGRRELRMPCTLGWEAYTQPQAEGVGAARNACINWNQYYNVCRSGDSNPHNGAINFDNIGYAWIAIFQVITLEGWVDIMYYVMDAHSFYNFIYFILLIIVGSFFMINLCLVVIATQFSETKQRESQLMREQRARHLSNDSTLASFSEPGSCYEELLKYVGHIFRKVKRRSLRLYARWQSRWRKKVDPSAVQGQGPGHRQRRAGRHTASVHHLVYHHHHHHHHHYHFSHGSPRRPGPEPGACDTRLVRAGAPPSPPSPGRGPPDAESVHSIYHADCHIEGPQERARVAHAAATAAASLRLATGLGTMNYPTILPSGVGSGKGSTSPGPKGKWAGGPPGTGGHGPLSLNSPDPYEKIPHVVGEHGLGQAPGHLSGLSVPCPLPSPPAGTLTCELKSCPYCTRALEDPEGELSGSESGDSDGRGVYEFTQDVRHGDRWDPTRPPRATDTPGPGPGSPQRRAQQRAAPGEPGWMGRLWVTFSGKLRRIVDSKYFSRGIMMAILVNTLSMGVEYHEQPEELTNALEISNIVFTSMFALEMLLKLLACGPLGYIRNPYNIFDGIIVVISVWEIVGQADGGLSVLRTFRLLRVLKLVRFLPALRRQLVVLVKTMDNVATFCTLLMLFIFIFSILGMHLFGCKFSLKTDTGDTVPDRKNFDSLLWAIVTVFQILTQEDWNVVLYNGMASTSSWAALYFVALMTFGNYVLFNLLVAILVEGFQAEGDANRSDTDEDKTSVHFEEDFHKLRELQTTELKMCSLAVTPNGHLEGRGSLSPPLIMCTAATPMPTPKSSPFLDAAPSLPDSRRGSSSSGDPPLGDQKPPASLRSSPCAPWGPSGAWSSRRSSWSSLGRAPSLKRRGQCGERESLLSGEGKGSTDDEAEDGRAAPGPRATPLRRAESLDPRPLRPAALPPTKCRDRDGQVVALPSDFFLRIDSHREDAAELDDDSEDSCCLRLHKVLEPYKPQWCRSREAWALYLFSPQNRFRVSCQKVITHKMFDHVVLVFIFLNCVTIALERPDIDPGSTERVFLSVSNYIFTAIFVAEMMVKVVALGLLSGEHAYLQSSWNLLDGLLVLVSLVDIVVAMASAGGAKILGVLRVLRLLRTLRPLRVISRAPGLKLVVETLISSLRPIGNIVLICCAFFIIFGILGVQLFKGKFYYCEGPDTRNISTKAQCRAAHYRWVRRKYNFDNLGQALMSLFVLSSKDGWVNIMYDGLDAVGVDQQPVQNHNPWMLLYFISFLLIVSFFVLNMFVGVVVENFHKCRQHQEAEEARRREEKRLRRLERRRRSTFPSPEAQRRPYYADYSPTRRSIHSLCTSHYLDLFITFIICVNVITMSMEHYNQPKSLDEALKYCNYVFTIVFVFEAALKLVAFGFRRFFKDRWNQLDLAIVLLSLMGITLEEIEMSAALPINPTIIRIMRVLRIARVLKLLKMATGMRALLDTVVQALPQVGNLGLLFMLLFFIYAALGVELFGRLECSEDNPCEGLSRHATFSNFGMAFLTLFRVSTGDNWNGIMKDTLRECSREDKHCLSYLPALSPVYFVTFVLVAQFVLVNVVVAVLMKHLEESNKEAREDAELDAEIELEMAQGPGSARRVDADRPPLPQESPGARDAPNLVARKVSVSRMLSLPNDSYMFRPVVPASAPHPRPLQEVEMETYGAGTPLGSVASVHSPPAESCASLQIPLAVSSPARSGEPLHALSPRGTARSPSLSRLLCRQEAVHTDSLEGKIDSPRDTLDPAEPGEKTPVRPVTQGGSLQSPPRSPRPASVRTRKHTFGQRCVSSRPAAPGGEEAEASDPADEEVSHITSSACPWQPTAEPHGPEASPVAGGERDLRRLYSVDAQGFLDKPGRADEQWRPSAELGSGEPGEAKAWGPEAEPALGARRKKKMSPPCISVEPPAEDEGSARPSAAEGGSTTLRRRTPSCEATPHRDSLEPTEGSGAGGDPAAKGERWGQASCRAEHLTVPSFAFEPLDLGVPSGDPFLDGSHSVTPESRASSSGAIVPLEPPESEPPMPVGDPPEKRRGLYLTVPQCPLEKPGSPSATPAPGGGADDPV
# Experiment notes: IonWorks screen for hCaV3.2 (T-type calcium current, voltage clamp)
# Measurement conditions: IonWorks HT, HEK cells, 10 min incubation, pulse 10, 8-point curve; read-out: IW hCav3 2 IC50
Recorded endpoint: IC50

1. CC[C@H](C)[C@H](NC(=O)N1CCC2(CC1)C(=O)N(c1cncnc1)C2c1ccccn1)C(=O)OC (stereo partly shown)
2610 nM
2. C[C@H](NC(=O)N1CCC2(CC1)C(=O)N(c1cccc(F)c1)C2c1ccc(Cl)cc1)c1ccccc1 (stereo partly shown)
139 nM
3. O=C(Nc1cccc(C(F)(F)F)c1)N1CCC2(CC1)C(=O)N(c1cccc(Cl)c1)C2c1ccccn1 (stereo not shown) [drawing 564]
19.5 nM
4. O=C(Nc1cc(F)cc(F)c1)N1CCC2(CC1)C(=O)N(c1ccc(F)c(Cl)c1)C2c1ccc(Br)cn1 (stereo not shown)
52.5 nM
